# ASSAYED TARGET: Porcine pancreatic amylase (Sus scrofa, UniProt P00690)
# Sequence (P00690 16-511): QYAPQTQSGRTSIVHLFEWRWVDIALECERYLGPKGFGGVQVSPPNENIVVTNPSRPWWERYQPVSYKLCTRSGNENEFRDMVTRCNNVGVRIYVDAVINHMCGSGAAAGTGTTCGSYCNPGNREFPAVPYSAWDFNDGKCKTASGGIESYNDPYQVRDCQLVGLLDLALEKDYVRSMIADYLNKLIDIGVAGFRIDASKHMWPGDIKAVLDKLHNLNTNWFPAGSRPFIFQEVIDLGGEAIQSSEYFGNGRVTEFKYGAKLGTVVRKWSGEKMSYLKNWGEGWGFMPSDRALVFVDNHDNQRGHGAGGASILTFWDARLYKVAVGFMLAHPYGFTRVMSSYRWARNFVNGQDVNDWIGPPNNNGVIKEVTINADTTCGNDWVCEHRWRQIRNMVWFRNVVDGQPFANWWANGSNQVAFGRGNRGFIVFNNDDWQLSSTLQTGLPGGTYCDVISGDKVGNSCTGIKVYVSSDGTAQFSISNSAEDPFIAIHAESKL
Response field label: string, one of y (IC50 strictly below 40 µM) or n.

1) CCN/C(=N\NC(=O)COc1ccnc2ccccc12)C(C#N)C(=O)Nc1ccc(C(C)=O)cc1 (centres unmarked)	y
2) CCNC(=NNC(=O)COc1ccc2ccccc2c1)C(C#N)C(=O)Nc1ccc(C(N)=O)cc1 (centres unmarked)	n
3) N#CC(C(=O)Nc1ccc(C(N)=O)cc1)C(=NNC(=O)COc1ccc2ccccc2c1)Nc1ccccc1 (centres unmarked)	n
4) CS/C(Nc1ccccc1)=C(\C#N)C(=O)Nc1ccc(C(N)=O)cc1	n
5) CC(=O)c1ccc(NC(=O)C(C#N)/C(=N/NC(=O)COc2ccc3ccccc3c2)Nc2ccccc2)cc1 (centres unmarked)	n

====

Listed here: items and their measured IC50.
# ASSAYED TARGET: human recombinant aldose reductase (Homo sapiens, UniProt P15121)
# ASSAY DETAILS: In vitro aldose reductase inhibition assay (DL-glyceraldehyde substrate)
# Format: biochemical
# CONDITION DETAILS: mean ± SE; DL-glyceraldehyde 5 mM
METRIC NAME: IC50

1) CCN/C(=N\NC(=O)COc1ccc2ccccc2c1)C(C#N)C(=O)Nc1ccc(C(C)=O)cc1 (centres unmarked)	42.8 µM
2) CC(=O)c1ccc(NC(=O)C(C#N)/C(=N/NC(=O)COc2ccnc3ccccc23)Nc2ccccc2)cc1 (centres unmarked)	43 µM
3) CC(=O)c1ccc(NC(=O)C(C#N)/C(=N/NC(=O)COc2ccc3ccccc3c2)Nc2ccccc2)cc1 (centres unmarked)	33.6 µM
4) CCNC(=NNC(=O)COc1ccc2ccccc2c1)C(C#N)C(=O)Nc1ccc(C(N)=O)cc1 (centres unmarked)	50.8 µM
5) N#CC(C(=O)Nc1ccc(C(N)=O)cc1)C(=NNC(=O)COc1ccnc2ccccc12)Nc1ccccc1 (centres unmarked)	40.6 µM
